- System: red blood cells
- procedure summary: Hemolysis assay
- Assay type: cell-based, Sprague-Dawley mouse
observable: HC50 (µM)
Express your answer in µM, writing the number without its unit.

Query string: What does the data say about its HC50? Entry: C[C@@H](c1ccccc1)N(CC(N)=O)C(=O)CN(C(=O)CN(CCCCN)C(=O)CN(C(=O)CN(C(=O)CN(CCCCN)C(=O)CN(CCc1c[nH]c2ccccc12)C(=O)CN(CCc1c[nH]c2ccccc12)C(=O)CN(CCCCN)C(=O)CN(C(=O)CN(C(=O)CNCCCCN)[C@@H](C)c1ccccc1)[C@@H](C)c1ccccc1)[C@@H](C)c1ccccc1)[C@@H](C)c1ccccc1)[C@@H](C)c1ccccc1 [Peptoid 13]
Result string: 41.3

Recorded values, source patent US20240226228A1.
